- assay_method_text: Inhibition of pig GSK-3 by radiometric protein kinase assay
- Design: species or system Sus scrofa
observed_property: IC50

Example entries begin here.
[
  {
    "entry_smiles": "CCOc1ccccc1-c1c(C#N)c(N)nc2sc(C#N)c(N)c12",
    "observed_property": "IC50",
    "reported_value": "> 10 µM"
  },
  {
    "entry_smiles": "N#Cc1c(N)nc2sc(C(=O)c3cccc(Cl)c3)c(N)c2c1-c1ccccc1I",
    "observed_property": "IC50",
    "reported_value": "> 10 µM"
  },
  {
    "entry_smiles": "N#Cc1c(N)nc2sc(C(=O)c3cccc(Cl)c3)c(N)c2c1-c1ccccc1F",
    "observed_property": "IC50",
    "reported_value": "> 100 µM"
  },
  {
    "entry_smiles": "COc1ccccc1-c1c(C#N)c(N)nc2sc(C(=O)c3ccc(C)cc3)c(N)c12",
    "observed_property": "IC50",
    "reported_value": "> 10 µM"
  },
  {
    "entry_smiles": "COc1ccccc1-c1c(C#N)c(N)nc2sc(C(=O)c3cccc(Cl)c3)c(N)c12",
    "observed_property": "IC50",
    "reported_value": "> 10 µM"
  }
]

Task item: Determine its reported IC50: N#Cc1c(N)nc2sc(C(=O)c3ccc(Cl)cc3)c(N)c2c1-c1ccccc1Br
Reply: > 100 µM

Task item: Determine its reported IC50: Nc1c(C(=O)c2ccccc2)sc2nc3c(c(-c4ccccc4I)c12)CCCC3
Reply: > 10 µM

Task item: Determine its reported IC50: N#Cc1c(N)nc2sc(C(=O)c3ccc(Cl)cc3)c(N)c2c1-c1ccccc1
Reply: > 100 µM

Task item: Determine its reported IC50: Cc1ccccc1-c1c(C#N)c(N)nc2sc(C#N)c(N)c12
Reply: 2 µM

Task item: Determine its reported IC50: COc1ccccc1-c1c(C#N)c(N)nc2sc(C#N)c(N)c12
Reply: > 10 µM

----------
- target_desc: Glycogen synthase kinase-3 (Sus scrofa, UniProt B2LUN4+I6LNT8)
- assay_method_text: Inhibition of pig GSK-3alpha/beta
# IC50 annotations

Task item: Determine its reported IC50: N#Cc1c(N)nc2sc(C(=O)c3cccc(Cl)c3)c(N)c2c1-c1ccccc1Br
Reply: > 100 µM

Task item: Determine its reported IC50: N#Cc1cccc(C(=O)c2sc3nc(N)c(C#N)c(-c4ccccc4Cl)c3c2N)c1
Reply: > 100 µM

Task item: Determine its reported IC50: COc1ccccc1-c1c(C#N)c(N)nc2sc(C(=O)c3ccccc3)c(N)c12
Reply: > 100 µM

----------
- assay_method_text: Inhibition of Plasmodium falciparum recombinant GSK-3 by radiometric protein kinase assay
observed_property: pIC50
pIC50 here: minus log base 10 of the concentration, concentration in moles per litre.

Example entries begin here.
[
  {
    "entry_smiles": "N#Cc1c(N)nc2sc(C(=O)c3cccc(Br)c3)c(N)c2c1-c1ccccc1Cl",
    "reported_value": 6.04
  },
  {
    "entry_smiles": "N#Cc1c(N)nc2sc(C(=O)c3cccc(C(F)(F)F)c3)c(N)c2c1-c1ccccc1Cl",
    "reported_value": 5.66
  },
  {
    "entry_smiles": "N#Cc1c(N)nc2sc(C(=O)c3ccc(Cl)c(Cl)c3)c(N)c2c1-c1ccccc1Cl",
    "reported_value": 5.57
  },
  {
    "entry_smiles": "Cc1ccccc1-c1c(C#N)c(N)nc2sc(C#N)c(N)c12",
    "reported_value": 6.29
  },
  {
    "entry_smiles": "N#Cc1c(N)nc2sc(C(=O)c3ccccc3)c(N)c2c1-c1ccccc1Br",
    "reported_value": 5.96
  },
  {
    "entry_smiles": "N#Cc1c(N)nc2sc(C(=O)c3cccc(Cl)c3)c(N)c2c1-c1ccccc1F",
    "reported_value": 5.00
  },
  {
    "entry_smiles": "N#Cc1sc2nc(N)c(C#N)c(-c3ccccc3Cl)c2c1N",
    "reported_value": 6.89
  },
  {
    "entry_smiles": "N#Cc1c(N)nc2sc(C(=O)c3ccccc3)c(N)c2c1-c1ccccc1I",
    "reported_value": 5.62
  },
  {
    "entry_smiles": "N#Cc1sc2nc(N)c(C#N)c(-c3c[nH]c4ccccc34)c2c1N",
    "reported_value": 5.80
  },
  {
    "entry_smiles": "N#Cc1sc2nc(N)c(C#N)c(-c3cccs3)c2c1N",
    "reported_value": 6.74
  }
]

Task item: Determine its reported pIC50: N#Cc1cccc(C(=O)c2sc3nc(N)c(C#N)c(-c4ccccc4Cl)c3c2N)c1
Reply: 6.30

----------
- assay_method_text: Inhibition of pig GSK-3 by radiometric protein kinase assay
- Design: species or system Sus scrofa
pIC50: −log10 of the molar value.
# pIC50 annotations

[
  {
    "entry_smiles": "N#Cc1c(N)nc2sc(C(=O)c3ccccc3)c(N)c2c1-c1ccccc1Br",
    "pIC50": "< 5.00"
  }
]

Task item: Determine its reported pIC50: N#Cc1cccc(C(=O)c2sc3nc(N)c(C#N)c(-c4ccccc4Cl)c3c2N)c1
Reply: < 5.00

Task item: Determine its reported pIC50: N#Cc1c(N)nc2sc(C(=O)Nc3ccc(Cl)cc3)c(N)c2c1-c1ccccc1Br
Reply: < 5.00

Task item: Determine its reported pIC50: N#Cc1c(N)nc2sc(C(=O)c3cccc(F)c3)c(N)c2c1-c1ccccc1Cl
Reply: < 4.00

Task item: Determine its reported pIC50: Cc1ccc(C(=O)c2sc3nc(N)c(C#N)c(-c4ccccc4I)c3c2N)cc1
Reply: < 5.00

----------
- target_desc: Glycogen synthase kinase-3 (Sus scrofa, UniProt B2LUN4+I6LNT8)
- assay_method_text: Inhibition of pig GSK-3alpha/beta
# IC50 annotations

Example entries begin here.
[
  {
    "entry_smiles": "N#Cc1c(N)nc2sc(C(=O)c3ccc(Cl)cc3)c(N)c2c1-c1ccccc1I",
    "observed_property": "IC50",
    "reported_value": "> 100 µM"
  },
  {
    "entry_smiles": "N#Cc1c(N)nc2sc(C(=O)c3cccc(Cl)c3)c(N)c2c1-c1ccccc1Cl",
    "observed_property": "IC50",
    "reported_value": "> 10 µM"
  }
]

Task item: Determine its reported IC50: N#Cc1c(N)nc2sc(C(=O)c3cccc(Cl)c3)c(N)c2c1-c1ccccc1I
Reply: > 100 µM

----------
- assay_method_text: Inhibition of Plasmodium falciparum recombinant GSK-3 by radiometric protein kinase assay
pIC50: −log10 of the molar value.
observed_property: pIC50

Example entries begin here.
[
  {
    "entry_smiles": "N#Cc1c(N)nc2sc(C(=O)c3cccc(Cl)c3)c(N)c2c1-c1cccs1",
    "reported_value": "< 5.00"
  },
  {
    "entry_smiles": "N#Cc1sc2nc(N)c(C#N)c(-c3ccccc3I)c2c1N",
    "reported_value": "< 5.00"
  },
  {
    "entry_smiles": "N#Cc1c(N)nc2sc(C(=O)Nc3ccc(Cl)cc3)c(N)c2c1-c1ccccc1I",
    "reported_value": "< 5.00"
  },
  {
    "entry_smiles": "COc1ccccc1-c1c(C#N)c(N)nc2sc(C(=O)c3ccc(C)cc3)c(N)c12",
    "reported_value": "< 5.00"
  },
  {
    "entry_smiles": "N#Cc1c(N)nc2sc(C(=O)c3cccc(F)c3)c(N)c2c1-c1ccccc1Cl",
    "reported_value": "< 4.00"
  }
]

Let's switch to this compound now.
Task item: Determine its reported pIC50: COc1ccccc1-c1c(C#N)c(N)nc2sc(C(=O)c3ccc(Cl)cc3)c(N)c12
Reply: < 5.00

----------
# pIC50 annotations
- assay_method_text: Inhibition of pig GSK-3 by radiometric protein kinase assay
- Design: species or system Sus scrofa
pIC50: −log10 of the molar value.

[
  {
    "entry_smiles": "COc1ccccc1-c1c(C#N)c(N)nc2sc(C(=O)c3ccccc3Cl)c(N)c12",
    "observed_property": "pIC50",
    "reported_value": "< 5.00"
  },
  {
    "entry_smiles": "N#Cc1c(N)nc2sc(C(=O)c3ccc(Cl)c(Cl)c3)c(N)c2c1-c1ccccc1I",
    "observed_property": "pIC50",
    "reported_value": "< 4.00"
  },
  {
    "entry_smiles": "N#Cc1c(N)nc2sc(C(=O)c3ccc(Cl)c(Cl)c3)c(N)c2c1-c1ccccc1Br",
    "observed_property": "pIC50",
    "reported_value": "< 5.00"
  },
  {
    "entry_smiles": "N#Cc1c(N)nc2sc(C(=O)c3ccccc3)c(N)c2c1-c1ccccc1I",
    "observed_property": "pIC50",
    "reported_value": "< 5.00"
  },
  {
    "entry_smiles": "N#Cc1sc2nc(N)c(C#N)c(-c3ccccc3Cl)c2c1N",
    "observed_property": "pIC50",
    "reported_value": 6.40
  }
]

Task item: Determine its reported pIC50: COc1ccc(C(=O)c2sc3nc(N)c(C#N)c(-c4ccccc4OC)c3c2N)cc1
Reply: < 5.00

Task item: Determine its reported pIC50: COc1ccccc1-c1c(C#N)c(N)nc2sc(C(=O)c3ccc(C#N)cc3)c(N)c12
Reply: < 5.00

Task item: Determine its reported pIC50: N#Cc1sc2nc(N)c(C#N)c(-c3cccs3)c2c1N
Reply: 5.64

Task item: Determine its reported pIC50: CCOc1ccccc1-c1c(C#N)c(N)nc2sc(C(=O)c3ccc(Cl)cc3)c(N)c12
Reply: < 5.00
